Exercise: state measured IC50 for each of the compounds provided.
Biological target: Tyrosine-protein kinase JAK2 (Homo sapiens, UniProt O60674)
Sequence (O60674 whole entry): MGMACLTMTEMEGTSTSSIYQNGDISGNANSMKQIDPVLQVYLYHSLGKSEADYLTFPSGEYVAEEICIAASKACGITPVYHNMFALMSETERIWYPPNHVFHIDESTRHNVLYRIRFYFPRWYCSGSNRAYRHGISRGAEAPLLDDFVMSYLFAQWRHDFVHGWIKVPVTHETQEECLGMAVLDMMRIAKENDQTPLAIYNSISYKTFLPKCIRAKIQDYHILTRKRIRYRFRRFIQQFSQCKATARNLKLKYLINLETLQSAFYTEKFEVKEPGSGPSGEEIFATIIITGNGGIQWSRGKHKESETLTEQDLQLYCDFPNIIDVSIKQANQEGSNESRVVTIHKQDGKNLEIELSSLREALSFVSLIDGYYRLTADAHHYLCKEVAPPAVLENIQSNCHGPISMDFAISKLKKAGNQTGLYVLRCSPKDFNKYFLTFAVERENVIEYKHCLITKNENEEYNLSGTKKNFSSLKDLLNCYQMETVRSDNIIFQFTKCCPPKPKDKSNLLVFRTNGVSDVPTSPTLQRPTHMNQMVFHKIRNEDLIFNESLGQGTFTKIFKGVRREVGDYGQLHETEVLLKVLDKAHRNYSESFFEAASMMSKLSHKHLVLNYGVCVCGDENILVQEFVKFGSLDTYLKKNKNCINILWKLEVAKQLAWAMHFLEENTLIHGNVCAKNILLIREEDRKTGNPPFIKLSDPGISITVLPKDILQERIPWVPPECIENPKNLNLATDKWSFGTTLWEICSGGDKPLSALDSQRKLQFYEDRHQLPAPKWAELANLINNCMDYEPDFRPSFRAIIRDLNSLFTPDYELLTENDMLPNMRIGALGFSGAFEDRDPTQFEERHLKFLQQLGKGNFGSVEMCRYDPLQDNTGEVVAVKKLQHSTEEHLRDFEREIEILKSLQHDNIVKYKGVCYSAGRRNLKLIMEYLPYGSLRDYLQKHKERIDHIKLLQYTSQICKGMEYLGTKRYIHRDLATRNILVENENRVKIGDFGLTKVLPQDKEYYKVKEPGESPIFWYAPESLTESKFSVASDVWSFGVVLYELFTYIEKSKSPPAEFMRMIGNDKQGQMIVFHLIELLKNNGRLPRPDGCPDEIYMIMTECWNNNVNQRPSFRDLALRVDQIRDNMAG
One number for each entry, in µM.

O=C(CCCCCCC(=O)Nc1ccc(Nc2nc(-c3cnn(CCCCCCOc4ccccc4)c3)c3cc[nH]c3n2)cc1)NO | 0.019
O=C(CCCCCCC(=O)Nc1ccc(Nc2nc(-c3cnn(CCCCCOc4ccccc4)c3)c3cc[nH]c3n2)cc1)NO | 0.021

Please examine the following record next.
Request: Which IC50 is reported with Tyrosine-protein kinase JAK2 (Homo sapiens, UniProt O60674) for this entry: O=C(CCCCCCC(=O)Nc1ccc(Nc2nc(-c3cnn(CCCCOc4ccccc4)c3)c3cc[nH]c3n2)cc1)NO ?
Response: 0.04
